Tested System: T1, human PAR-2 (human, UniProt P55085 26-397)
T1 sequence: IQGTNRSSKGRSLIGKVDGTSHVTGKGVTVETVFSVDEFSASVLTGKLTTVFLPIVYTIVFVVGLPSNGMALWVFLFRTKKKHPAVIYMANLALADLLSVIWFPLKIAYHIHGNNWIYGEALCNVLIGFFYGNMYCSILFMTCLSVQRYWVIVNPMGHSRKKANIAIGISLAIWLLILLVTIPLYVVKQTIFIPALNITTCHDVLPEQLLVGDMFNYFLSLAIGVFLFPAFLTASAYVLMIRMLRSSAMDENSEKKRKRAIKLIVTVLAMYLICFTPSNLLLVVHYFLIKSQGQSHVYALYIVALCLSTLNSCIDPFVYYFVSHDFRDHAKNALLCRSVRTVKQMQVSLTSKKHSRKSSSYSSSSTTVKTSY
Measurement Protocol: cell-based or functional assay
Each entry below carries its recorded IC50, PAR-2 β-arrestin cell assay.
The answer is to be given in nM; state only the numeric part.

Field: example entries. Status: answers known.
1. Ab77 (antibody, human IgG4, V domains shown, also called Anti-PAR-2 antibody # 77) VH: EVQLVGSGGGLVQPKGSLKLSCAASGFTFNTYAMHWVRQAPGKGLEWVARIGSKSSYYATYYADSVKDRFTISRDDSQSMLYLQMNNLKTEDTAMYYCVREDYYGSSYDYWGQGTTLTVSS VL: DIVMTQSHKFMSISVGDRVSITCKASQDVGTAVAWHQQKAGQSPKLLIYWASARHTGVPDRFTGSGSGTDFTLTISNVQSEDLTDFFCQQYSNYPFTFGSGTKLEIK ... 16.5
2. Ab303 (antibody, human IgG4, V domains shown, also called Anti-PAR-2 antibody # 303) VH: QVTLKESGPGILQPSHTLSLTCSFSGFSLSTYGMGVSWIRQPSGKGLEWLASIWWNGNTYNNPSLKSRLTVSKDTSNNQAFLKVTSVDTADTATYYCAHTPNLGNWFAYWGQGTLVTVSS VL: DIQMTQSPSFLSASVGERVTLSCKTSQKINRYLDWYQQKLGEAPKLLIYNTNNLHTGIPSRFSGSGSGTDYTLTISSLQPEDVATYFCLQHSSWPTFGAGTKLELK ... 9

Could you now consider this next binder?
The value of IC50, PAR-2 β-arrestin cell assay measured for the binder Ab380 (antibody, human IgG4, V domains shown, also called Anti-PAR-2 antibody # 380) VH: EVQLVESGGGLVQPGRSLKLSCVATGFTFNNYWMTWIRQAPGKGLEWVASITNSGGNTYYPDSVKGRFTISRDDAKSTLYLQMNSLRSEDTATYYCTRVRVYYGSNWFVYWGQGTLVTVSS VL: DIQMTQSPHSLSASLGETVSIECLASEGISNYLAWFQQKPGKSPQLLIYYASSLQDGVPSRFSGSGSGTQYSLKISNMQPEDEGVYYCQQGYKYPWTFGGGTKLELK turned out to be 57.1
